The reported measurements were obtained from the supplement of paper PMC9732359.

assay details: protein stability index of a GFP-peptide fusion (yeast GPS) (PSI 1-4); higher = more stable; sorted into four equal gates, so the index is relative within each strain
settings: doa10∆
The entries below are paired with their reported protein stability index.
endpoint label: protein stability index

{"columns": ["construct sequence", "number"],
 "data": [
  ["AVKDQQKYTKEMIDSHI [SNF2]", 2.8],
  ["ERDSYKLLASTEENKAN [YIL149C/MLP2]", 2.76],
  ["PAHTKYMLIEEAASSNK [ITC1]", 3.05],
  ["SILEHSGIRLIEPELFN [FAS2]", 2.67],
  ["IPDFRSSEGFYSKIKHL [SIR2]", 2.33],
  ["PVVRAPTVKYNRKVRAG [RPL13A]", 1.22],
  ["ISLYLLNLLSQNNTTKF [RPN12]", 1.53],
  ["DENKDDELVKLLLDNGF [SRP68]", 3.05],
  ["RSYDLTRHQNTIHAKRK [RPN4]", 2.48],
  ["EFEYDDEPDEQGNPKKR [CYT1]", 3.21],
  ["SMQTIAETIILSSAGKN [SRB5]", 2.09],
  ["ERKKQSDVLRFLQRVRV [RPL15B]", 2.08],
  ["AVVVGTGNIKHEDLVNS [COR1]", 3.05],
  ["SRGINKGHKFNNTKAGR [RPL15A]", 3.28],
  ["TIRVVTENKIFVEVERA [RPN5]", 1.51],
  ["ARDLLDDLEKTLDKKDS [RPN9]", 3.21],
  ["FDDRGDVKVIMATNKIE [RPT2]", 3.12],
  ["DGLLEYLEDIIGTANYK [SMC4]", 2.38],
  ["RNAALRAKAEAAEFRYK [SCL1]", 2.9],
  ["GLSILFLTGQFASNKKI [YML103C/NUP188]", 2.36],
  ["NVQLRDVIATEPQGAVT [SMD3]", 2.96],
  ["HKISFSGTKSEVLTYVN [YJL039C/NUP192]", 2.65],
  ["NQQQPPQDILSKLYLLL [SNF11]", 2.09],
  ["LLVPLALLTKRLYPHWD [CSN12]", 2.33],
  ["GLKFASFIFQYYGLVID [PRP8]", 1.73],
  ["SLQEDVSFDFNGVPGQA [MED8]", 2.41],
  ["GPSSVHNAKNGTLDKNS [SNF2]", 2.66],
  ["NEEAEARRLKNRAARDR [RPL19A]", 3.16],
  ["DRKIQGWLGALTMANLP [ARP7]", 2.8],
  ["LTWLSSFSVCKIRCFRY [IRR1]", 2.07],
  ["QEIFDANVQRLKEYQSK [RPL13A]", 3.06],
  ["DEQQREDNNDAVNSIMA [ECM29]", 3.16],
  ["CMEVASAFMKFSKAIEW [BRR2]", 2.12],
  ["KSDEAKWKPVLSHIVYF [RPN5]", 2.29],
  ["NATLQALYRVNDLRDMI [UBP6]", 2.74],
  ["EDLFDDYPSTSLDIRHD [NUT1]", 1.81],
  ["PFLLMELHKKLVEAAKL [YDL116W/NUP84]", 1.41],
  ["YIEASGREGIWSKTIKA [RPC34]", 1.78],
  ["LVPQLGHVGSVQISNIP [PRP8]", 2.32],
  ["MLRRHAAPPSTNFEILN [DIS3]", 1.87],
  ["FNEENGEDSTKPLGPCD [POP1]", 3.34],
  ["FRRDFLLREYDILSQIL [YJL039C/NUP192]", 1.81],
  ["LVEKVYARFKNDFFPGE [ITC1]", 3.47],
  ["EYQVIGRRLPTESVPEP [RPL20A]", 3.08],
  ["SKSEFAHRIMLTNILRM [FAS2]", 1.62],
  ["DLSYNFNVHEVPRAALE [YMR129W/POM152]", 2.91],
  ["FFPYYVHTIIAGLDEDG [PRE7]", 3.65],
  ["QEDELDEGTALSRLGLK [RPB10]", 3.41],
  ["HKNERRVLEIQTSLVRM [SKI6]", 2.99],
  ["QSAIRPAGQATQKRTHV [RPL4A]", 2.83],
  ["GVQTAYIDYSSKRYIPS [RRP40]", 2.43],
  ["YFLHLSVFNAELLKLLN [YCS4]", 1.26],
  ["TPISNEQTEGEPKKKRG [SRP68]", 3.16],
  ["VSIDIEEPQLDLLDDVL [MTW1]", 2.62],
  ["NEPTQKDEEETEYFENK [DSN1]", 3.58],
  ["ERLDKDKDRDTRRKRRQ [SNF5]", 2.82],
  ["YQKLFSQFINDHILFTK [SRB8]", 1.94],
  ["KFHKREVVEAVTVVDTP [RPL3]", 1.44],
  ["TPAFGSNNTGNTAFGNS [YJL041W/NSP1]", 2.85],
  ["ESFTEELSNELSRLSTA [MED1]", 3.25]
]}
